EXPERIMENTAL_SETUP: plasma; Post preparative stability 24 h at autosampler; 2.50 ng/mL (LQC)
VALUE_TYPE: %Accuracy

C=C1CC[C@@H]2[C@](C)(CO)[C@H](O)CC[C@@]2(C)[C@@H]1C/C=C1/C(=O)OC[C@H]1O [AP1, andrographolide]
93.81%
C=C1CC[C@@H]2[C@](C)(CO)[C@H](O)CC[C@@]2(C)[C@@H]1/C=C/C1=CCOC1=O [AP3, 14-deoxy-11, 12-didehydroandrographolide]
97.41%

Query string: Query: %Accuracy; subject: C=C1CC[C@@H]2[C@](C)(CO[C@@H]3O[C@H](CO)[C@@H](O)[C@H](O)[C@H]3O)CCC[C@@]2(C)[C@@H]1CCC1=CCOC1=O [AP4, neoandrographolide]
Result string: 102.61%

Query string: Query: %Accuracy; subject: C=C1CC[C@@H]2[C@](C)(CO)[C@H](O)CC[C@@]2(C)[C@@H]1CCC1=CCOC1=O [AP6, 14-deoxyandrographolide]
Result string: 100.85%

---

ASSAY_OVERVIEW: Stability in urine under different storage conditions
Format: physicochemical, human
EXPERIMENTAL_SETUP: Long term stability 3 months at − 80 °C, 2.50 ng/mL (LQC)
VALUE_TYPE: %Accuracy (%)
Numeric answer only, unit % assumed.

Recorded %Accuracy, per entry:
C=C1CC[C@@H]2[C@](C)(CO)[C@H](O)CC[C@@]2(C)[C@@H]1C/C=C1/C(=O)OC[C@H]1O [AP1, andrographolide]
95.31
C=C1CC[C@@H]2[C@](C)(CO)[C@H](O)CC[C@@]2(C)[C@@H]1CCC1=CCOC1=O [AP6, 14-deoxyandrographolide]
93.89
C=C1CC[C@@H]2[C@](C)(CO)[C@H](O)CC[C@@]2(C)[C@@H]1/C=C/C1=CCOC1=O [AP3, 14-deoxy-11, 12-didehydroandrographolide]
94.28

Turning to the following compound.
Query string: Query: %Accuracy; subject: C=C1CC[C@@H]2[C@](C)(CO[C@@H]3O[C@H](CO)[C@@H](O)[C@H](O)[C@H]3O)CCC[C@@]2(C)[C@@H]1CCC1=CCOC1=O [AP4, neoandrographolide]
Result string: 93.48

---

Reported Measured concentration is given for each of the following compounds.
EXPERIMENTAL_SETUP: plasma; Freeze–thaw stability 5 cycles; 900.00 ng/mL (HQC)
Numeric answer only, unit ng/mL assumed.

Recorded Measured concentration, per entry:
C=C1CC[C@@H]2[C@](C)(CO)[C@H](O)CC[C@@]2(C)[C@@H]1CCC1=CCOC1=O [AP6, 14-deoxyandrographolide]
890.41
C=C1CC[C@@H]2[C@](C)(CO)[C@H](O)CC[C@@]2(C)[C@@H]1/C=C/C1=CCOC1=O [AP3, 14-deoxy-11, 12-didehydroandrographolide]
888.74
C=C1CC[C@@H]2[C@](C)(CO)[C@H](O)CC[C@@]2(C)[C@@H]1C/C=C1/C(=O)OC[C@H]1O [AP1, andrographolide]
857.48

Turning to the following compound.
Query string: Query: Measured concentration; subject: C=C1CC[C@@H]2[C@](C)(CO[C@@H]3O[C@H](CO)[C@@H](O)[C@H](O)[C@H]3O)CCC[C@@]2(C)[C@@H]1CCC1=CCOC1=O [AP4, neoandrographolide]
Result string: 906.60

Every entry's value here was drawn from paper PMC9924185.
